Molecular target: Cytochrome P450 2D6 (Homo sapiens)
Test: Cytochrome panel assay with activity outcomes
Details: recombinant CYP, pro-luciferin dealkylation, luminescence, p450-cyp2d6; series mostly up to 57.1 µM
In all, about 16,000 compounds went through this assay and about 2,600 (16%) were called active. Roughly 20% stayed inconclusive and do not appear here. The call rests on the fitted dose curve; in most records, active means well fitted curve in the direction sought with a large enough effect; inconclusive means small, poorly fitted or top-dose-only effect, or effect the other way; inactive means no such curve, though single readings can be large or run the other way. A selection follows.
Select the correct class. Options are y for active, n for inactive and nothing else.

compound="Brc1ccc(-c2csc(N3CCC(c4ccccc4)C3)n2)cc1 (centres undefined)" assay_target="Cytochrome P450 2D6 (Homo sapiens)" label_class=n
compound="Cc1cc(C(F)F)n2nc(C(=O)Nc3sc4c(c3C#N)CCC(C)C4)nc2n1 (centres undefined)" assay_target="Cytochrome P450 2D6 (Homo sapiens)" label_class=n
compound=O=C(CSc1nnc(CNc2ccc(F)cc2)o1)OC1CCCCC1 assay_target="Cytochrome P450 2D6 (Homo sapiens)" label_class=n

Q) Look up the recorded call for `CC(C)c1cccc2nc3c(c(C(C)(C)C)c12)Cn1c-3cccc1=O` in this test.
A) n

Q) What would you report for `NC(=S)NCCC[C@@H](N)C(=O)O` ?
A) n
